Cited source for all entries: paper PMC8780828

IC50 reference
# System: NL4-3∆Env-NanoLuc/SARS-CoV-2 mutant pseudovirus D614G/P681R
# Format: cell-based

{"mol_smiles": "Cc1c(C(=O)O)cccc1-c1ccc(/C=C2\\SC(=S)N(CCc3ccccc3)C2=O)o1", "IC50": "> 2000 nM"}
{"mol_smiles": "O=C(O)c1cccc(-c2ccc(/C=C3\\SC(=S)N(CCc4ccccc4)C3=O)o2)c1", "IC50": "65 nM"}
{"mol_smiles": "Cc1ccc(-c2ccc(/C=C3\\SC(=S)N(CCc4ccccc4)C3=O)o2)cc1C(=O)O", "IC50": "148 nM"}

Please look at the following compound next.
Task: Param item = O=C(O)c1cc(-c2ccc(/C=C3\SC(=S)N(CCc4ccccc4)C3=O)o2)ccc1Cl ; retrieve measured IC50.
Output: 49 nM

---

# pIC50 per record follows
# Tested on: NL4-3∆Env-NanoLuc/SARS-CoV-2 mutant pseudovirus N501Y/∆69–70/P681H
# Assay type: cell-based
Units for pIC50: none; it is -log10 of a concentration expressed in mol/L.

Completed entries (count: 3):
{"molecule": "O=C(O)c1cc(-c2ccc(/C=C3\\SC(=S)N(CCc4ccccc4)C3=O)o2)ccc1Cl [NBCoV1]", "pIC50": 7.24}
{"molecule": "O=C(O)c1cccc(-c2ccc(/C=C3\\SC(=S)N(CCc4ccccc4)C3=O)o2)c1 [NBCoV2]", "pIC50": 7.10}
{"molecule": "Cc1ccc(-c2ccc(/C=C3\\SC(=S)N(CCc4ccccc4)C3=O)o2)cc1C(=O)O [NBCoV4]", "pIC50": 6.80}

We next turn to a different molecule, shown below.
Task: So what does the record say about pIC50 for O=C(O)c1cc(-c2ccc(/C=C3\SC(=S)N(CCc4ccccc4)C3=O)o2)ccc1F [NBCoV3] ?
Output: 6.63

---

# Tested on: NL4-3∆Env-NanoLuc/SARS-CoV-2 mutant pseudovirus D614G
# Assay type: cell-based
pIC50: −log10 of the molar value.
Class true (1): pIC50 at least 7. Class false (0): pIC50 below 7.

# example entries with known answers
{"mol_smiles": "Cc1ccc(-c2ccc(/C=C3\\SC(=S)N(CCc4ccccc4)C3=O)o2)cc1C(=O)O", "assayed_system": "NL4-3∆Env-NanoLuc/SARS-CoV-2 mutant pseudovirus D614G", "assigned_class": "true (1)"}
{"mol_smiles": "O=C(O)c1cc(-c2ccc(/C=C3\\SC(=S)N(CCc4ccccc4)C3=O)o2)ccc1Cl", "assayed_system": "NL4-3∆Env-NanoLuc/SARS-CoV-2 mutant pseudovirus D614G", "assigned_class": "true (1)"}

Now consider the entry below.
Task: Could you verify whether the entry Cc1c(C(=O)O)cccc1-c1ccc(/C=C2\SC(=S)N(CCc3ccccc3)C2=O)o1 shows pIC50 of no less than 7?
Output: false (0)
